- target_or_system: GRK2 (Homo sapiens)
- Construct: purchased SignalChem A14-10G
- Sequence (P25098 whole entry): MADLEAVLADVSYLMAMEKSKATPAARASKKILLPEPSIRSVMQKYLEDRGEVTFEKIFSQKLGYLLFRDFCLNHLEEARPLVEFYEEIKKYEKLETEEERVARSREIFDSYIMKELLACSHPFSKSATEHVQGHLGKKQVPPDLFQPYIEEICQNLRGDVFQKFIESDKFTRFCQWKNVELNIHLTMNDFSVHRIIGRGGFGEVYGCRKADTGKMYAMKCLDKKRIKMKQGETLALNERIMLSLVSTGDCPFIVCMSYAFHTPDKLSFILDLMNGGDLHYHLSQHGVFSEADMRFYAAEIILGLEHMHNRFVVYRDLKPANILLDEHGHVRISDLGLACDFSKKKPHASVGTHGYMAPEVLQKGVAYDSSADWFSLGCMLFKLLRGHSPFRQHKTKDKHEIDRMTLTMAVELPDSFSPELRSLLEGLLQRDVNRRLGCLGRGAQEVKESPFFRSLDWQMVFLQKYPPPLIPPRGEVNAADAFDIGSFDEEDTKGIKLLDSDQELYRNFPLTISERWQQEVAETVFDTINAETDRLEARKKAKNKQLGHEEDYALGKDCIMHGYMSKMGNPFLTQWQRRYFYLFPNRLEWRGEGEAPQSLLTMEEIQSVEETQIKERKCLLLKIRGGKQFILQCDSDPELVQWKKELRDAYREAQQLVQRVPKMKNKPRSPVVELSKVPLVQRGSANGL
- method_notes: ADPGlo GRK2 Inhibition Assay (Example 8)
- Assay type: biochemical
- condition_context: ADPGlo GRK2 enzyme assay; read-out: A: Enzymatic GRK2: IC50 (nM) (Example 8)
Some molecules, each annotated with its measured log10 of IC50.
property_name: log10 of IC50 (log10 of the value in nM)

[
  {
    "molecule": "Cc1nc2c(c(C)c1CNC(=O)c1cccc(NCc3nnc(-c4ccncn4)n3C)c1)c(=O)[nH]n2C",
    "target_or_system": "GRK2 (Homo sapiens)",
    "log10 of IC50": 2.26
  },
  {
    "molecule": "Cn1c(CNc2cccc(C(=O)NCc3cc(S(C)(=O)=O)ccc3F)c2)nnc1-c1ccncn1",
    "target_or_system": "GRK2 (Homo sapiens)",
    "log10 of IC50": 1.72
  },
  {
    "molecule": "C[C@H](NC(=O)c1cccc(NCc2nnc(-c3ccncc3)n2CCO)c1)c1ncccc1Cl",
    "target_or_system": "GRK2 (Homo sapiens)",
    "log10 of IC50": 1.45
  },
  {
    "molecule": "C#Cc1ccc(CNC(=O)c2cccc(NCc3nnc(-c4ccncn4)n3C)c2)c(F)c1",
    "target_or_system": "GRK2 (Homo sapiens)",
    "log10 of IC50": 1.08
  },
  {
    "molecule": "Cc1cc(C)c(CNC(=O)c2cccc(NCc3nnc(-c4ccncn4)n3C)c2)cn1",
    "target_or_system": "GRK2 (Homo sapiens)",
    "log10 of IC50": 1.25
  },
  {
    "molecule": "Cn1c(CNc2cccc(C(=O)NCc3ccncc3Cl)c2)nnc1-c1ccncc1F",
    "target_or_system": "GRK2 (Homo sapiens)",
    "log10 of IC50": 1.50
  },
  {
    "molecule": "Cn1c(CNc2cccc(C(=O)NCc3ccncc3OCC3CCOC3)c2)nnc1-c1ccncn1 (centres unmarked)",
    "target_or_system": "GRK2 (Homo sapiens)",
    "log10 of IC50": 2.94
  },
  {
    "molecule": "CNS(=O)(=O)c1cccc(F)c1CNC(=O)c1ccnc(NCc2nnc(-c3ccncn3)n2C)c1",
    "target_or_system": "GRK2 (Homo sapiens)",
    "log10 of IC50": 1.18
  },
  {
    "molecule": "Cn1c(CNc2cccc(C(=O)NC(CO)c3ccc(F)cc3F)c2)nnc1-c1ccncn1 (centres unmarked)",
    "target_or_system": "GRK2 (Homo sapiens)",
    "log10 of IC50": 1.92
  },
  {
    "molecule": "COc1ccc(CNC(=O)c2cccc(NCc3nnc(-c4ccncn4)n3C)c2)c(OC)n1",
    "target_or_system": "GRK2 (Homo sapiens)",
    "log10 of IC50": 1.57
  },
  {
    "molecule": "COc1cccc([C@H](C)NC(=O)c2cccc(NCc3nnc(-c4ccncc4)n3CCO)c2)c1",
    "target_or_system": "GRK2 (Homo sapiens)",
    "log10 of IC50": 0.48
  },
  {
    "molecule": "CC(NC(=O)c1cccc(NCc2nnc(-c3ccncn3)n2C)c1)c1ccccc1NS(C)(=O)=O (centres unmarked)",
    "target_or_system": "GRK2 (Homo sapiens)",
    "log10 of IC50": 1.83
  },
  {
    "molecule": "Cc1ccc(C)c(CNC(=O)c2cccc(NCc3nnc(-c4ccncn4)n3C)c2)n1",
    "target_or_system": "GRK2 (Homo sapiens)",
    "log10 of IC50": 1.05
  },
  {
    "molecule": "COc1cccc([C@H](C)NC(=O)c2cccc(NCc3nnc(-c4ccncn4)n3CCO)c2)c1",
    "target_or_system": "GRK2 (Homo sapiens)",
    "log10 of IC50": 0.38
  },
  {
    "molecule": "COc1ccccc1[C@@H](NC(=O)c1cccc(NCc2nnc(-c3ccncn3)n2C)c1)c1noc(C)n1",
    "target_or_system": "GRK2 (Homo sapiens)",
    "log10 of IC50": 2.52
  },
  {
    "molecule": "COc1cccc([C@H](C)NC(=O)c2cccc(NCc3nnc4n3CCOc3cnccc3-4)c2)c1",
    "target_or_system": "GRK2 (Homo sapiens)",
    "log10 of IC50": 0.81
  },
  {
    "molecule": "C[C@@H](NC(=O)c1cccc(NCc2nnc(-c3ccncc3)n2CCO)c1)c1ncccc1Cl",
    "target_or_system": "GRK2 (Homo sapiens)",
    "log10 of IC50": 1.08
  },
  {
    "molecule": "Cc1cccnc1CNC(=O)c1cccc(NCc2nnc(-c3ccncc3)[nH]2)c1",
    "target_or_system": "GRK2 (Homo sapiens)",
    "log10 of IC50": 1.09
  },
  {
    "molecule": "CN1CCN(c2ccccc2CNC(=O)c2cccc(NCc3nnc(-c4ccncn4)n3C)c2)CC1",
    "target_or_system": "GRK2 (Homo sapiens)",
    "log10 of IC50": 2.26
  },
  {
    "molecule": "Cn1c(CNc2cccc(C(=O)NCc3cc(C#N)ccc3F)c2)nnc1-c1ccncn1",
    "target_or_system": "GRK2 (Homo sapiens)",
    "log10 of IC50": 1.25
  },
  {
    "molecule": "Cn1c(CNc2cccc(C(=O)NCc3nccnc3O)c2)nnc1-c1ccncn1",
    "target_or_system": "GRK2 (Homo sapiens)",
    "log10 of IC50": 2.86
  },
  {
    "molecule": "Cn1c(CNc2cccc(C(=O)NC3COc4ccc(F)cc43)c2)nnc1-c1ccncn1 (centres unmarked)",
    "target_or_system": "GRK2 (Homo sapiens)",
    "log10 of IC50": 1.42
  },
  {
    "molecule": "Cn1c(CNc2cccc(C(=O)NCc3c(F)ccc4[nH]cnc34)c2)nnc1-c1ccncn1",
    "target_or_system": "GRK2 (Homo sapiens)",
    "log10 of IC50": 1.28
  },
  {
    "molecule": "CN(C)c1cccnc1CNC(=O)c1cccc(NCc2nnc(-c3ccncn3)n2C)c1",
    "target_or_system": "GRK2 (Homo sapiens)",
    "log10 of IC50": 2.08
  },
  {
    "molecule": "COc1cccc([C@@H](C)NC(=O)c2cccc(NCc3nnc4n3CCOc3cnccc3-4)c2)c1",
    "target_or_system": "GRK2 (Homo sapiens)",
    "log10 of IC50": 1.20
  },
  {
    "molecule": "Cn1c(CNc2cccc(C(=O)NCc3ccccc3Cn3cncn3)c2)nnc1-c1ccncn1",
    "target_or_system": "GRK2 (Homo sapiens)",
    "log10 of IC50": 1.75
  },
  {
    "molecule": "Cn1c(CNc2cc(C(=O)N[C@H]3COCc4ccccc43)ccn2)nnc1-c1ccncn1",
    "target_or_system": "GRK2 (Homo sapiens)",
    "log10 of IC50": 1.85
  },
  {
    "molecule": "CNS(=O)(=O)Cc1ccccc1CNC(=O)c1cccc(NCc2nnc(-c3ccncn3)n2C)c1",
    "target_or_system": "GRK2 (Homo sapiens)",
    "log10 of IC50": 1.84
  },
  {
    "molecule": "Cn1c(CNc2cccc(C(=O)NCC3(c4ccccn4)CC3)c2)nnc1-c1ccncn1",
    "target_or_system": "GRK2 (Homo sapiens)",
    "log10 of IC50": 2.72
  },
  {
    "molecule": "CN(C)c1ccccc1CNC(=O)c1cccc(NCc2nnc(-c3ccncn3)n2C)c1",
    "target_or_system": "GRK2 (Homo sapiens)",
    "log10 of IC50": 1.17
  },
  {
    "molecule": "COc1cccc(CNC(=O)c2cccc(NCc3nnc(-c4ccncn4)n3C)c2)c1C",
    "target_or_system": "GRK2 (Homo sapiens)",
    "log10 of IC50": 1.10
  },
  {
    "molecule": "COc1cccc(CCNC(=O)c2cccc(NCc3nnc(-c4ccncn4)n3C)c2)c1",
    "target_or_system": "GRK2 (Homo sapiens)",
    "log10 of IC50": 2.53
  },
  {
    "molecule": "Cn1c(CNc2cccc(C(=O)NC3CCc4c(O)cccc43)c2)nnc1-c1ccncn1 (centres unmarked)",
    "target_or_system": "GRK2 (Homo sapiens)",
    "log10 of IC50": 1.67
  },
  {
    "molecule": "CNc1cccnc1CNC(=O)c1cccc(NCc2nnc(-c3ccncn3)n2C)c1",
    "target_or_system": "GRK2 (Homo sapiens)",
    "log10 of IC50": 2.12
  },
  {
    "molecule": "Cn1c(CNc2cccc(C(=O)NCc3ccccc3CN3CCOCC3)c2)nnc1-c1ccncn1",
    "target_or_system": "GRK2 (Homo sapiens)",
    "log10 of IC50": 1.85
  },
  {
    "molecule": "Cn1c(CNc2cccc(C(=O)N[C@H](C#N)c3cccnc3)c2)nnc1-c1ccncn1",
    "target_or_system": "GRK2 (Homo sapiens)",
    "log10 of IC50": 1.31
  },
  {
    "molecule": "Cn1c(CNc2cccc(C(=O)NC3C(=O)NCc4ccccc43)c2)nnc1-c1ccncn1 (centres unmarked)",
    "target_or_system": "GRK2 (Homo sapiens)",
    "log10 of IC50": 1.58
  },
  {
    "molecule": "CCC(NC(=O)c1cccc(NCc2nnc(-c3ccncn3)n2C)c1)c1ccccc1OCC(=O)NC (centres unmarked)",
    "target_or_system": "GRK2 (Homo sapiens)",
    "log10 of IC50": 1.83
  }
]

Origin of values: patent US20230009608A1
